# target-of-assay: T1, EsCas13d, nuclease-dead (Eubacterium siraeum, UniProt B0MS50, R295A;H300A;R849A;H854A)
# T1 sequence: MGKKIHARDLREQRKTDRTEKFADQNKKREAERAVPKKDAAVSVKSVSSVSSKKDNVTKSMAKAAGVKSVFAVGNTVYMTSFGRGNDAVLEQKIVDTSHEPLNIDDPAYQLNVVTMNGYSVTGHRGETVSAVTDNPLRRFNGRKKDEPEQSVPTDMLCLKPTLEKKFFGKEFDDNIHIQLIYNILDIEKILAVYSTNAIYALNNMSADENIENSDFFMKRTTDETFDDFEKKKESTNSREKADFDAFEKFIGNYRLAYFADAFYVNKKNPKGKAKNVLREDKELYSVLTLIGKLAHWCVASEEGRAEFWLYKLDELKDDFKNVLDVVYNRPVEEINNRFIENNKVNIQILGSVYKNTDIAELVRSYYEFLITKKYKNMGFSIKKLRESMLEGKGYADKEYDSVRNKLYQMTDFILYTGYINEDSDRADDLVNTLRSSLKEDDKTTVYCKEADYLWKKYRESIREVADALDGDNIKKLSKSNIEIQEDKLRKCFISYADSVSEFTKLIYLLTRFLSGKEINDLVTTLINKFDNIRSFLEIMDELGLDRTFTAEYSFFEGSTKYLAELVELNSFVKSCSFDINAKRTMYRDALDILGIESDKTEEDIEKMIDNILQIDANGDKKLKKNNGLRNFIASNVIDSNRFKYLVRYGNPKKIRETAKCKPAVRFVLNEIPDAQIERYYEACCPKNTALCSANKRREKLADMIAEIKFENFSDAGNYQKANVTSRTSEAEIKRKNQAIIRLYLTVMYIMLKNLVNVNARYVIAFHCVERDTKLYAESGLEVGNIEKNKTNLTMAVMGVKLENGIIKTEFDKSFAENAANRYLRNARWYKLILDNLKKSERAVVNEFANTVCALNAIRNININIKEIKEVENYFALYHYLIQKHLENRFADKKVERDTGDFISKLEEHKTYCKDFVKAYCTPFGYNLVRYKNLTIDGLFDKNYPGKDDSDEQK
# method-notes: crRNA (strand 1, pre-loaded); Mg2+; 40 mM Tris-HCl pH 7.5, 150 mM NaCl, 6 mM MgCl2, 1 mM DTT, 0.1% Tween-20, 0.2 mg/ml BSA; 25 C; 10 min per concentration, then washed
# measurement-context: tags: His6-TwinStrep-SUMO cleaved; N-terminal SNAP kept (SNAP-Surface 488); label: 3' end held by stalled T7 RNA polymerase
measured-quantity: pKd
Conceptually, pKd converts a concentration in mol/L into minus its log10.

[
  {
    "binder": "target 1 MT 5'PFS GUG 3'PFS GGG (mixed) RNA 1: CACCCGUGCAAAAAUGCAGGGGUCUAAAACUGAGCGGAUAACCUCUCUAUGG RNA 2: GGGAAUGGAUCCACAUCUACGAAUUCGUGCCAUAGAGAGGUUAUCCGCUCAGGGAGAUCGGAAGAGCACACGU",
    "pKd": 7.48
  }
]

Ask: Give reported pKd value for target 1 C2G,C4G (mixed) RNA 1: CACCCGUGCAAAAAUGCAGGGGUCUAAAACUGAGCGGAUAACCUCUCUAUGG RNA 2: GGGAAUGGAUCCACAUCUACGAAUUCGUACCAUAGAGAGGUUAUCCGGUGACCGAGAUCGGAAGAGCACACGU
Reply: 8.15

Ask: Give reported pKd value for target 1 insU 3' of 4,insA 3' of 3 (mixed) RNA 1: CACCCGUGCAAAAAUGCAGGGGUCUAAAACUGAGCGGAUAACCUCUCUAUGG RNA 2: GGGAAUGGAUCCACAUCUACGAAUUCGUACCAUAGAGAGGUUAUCCGCUUACACCGAGAUCGGAAGAGCACACGU
Reply: 8.10
